B1: ZNF511 (parent)
chain: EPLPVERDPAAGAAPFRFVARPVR

Variants of: B1
TEST DETAILS: protein stability index of a GFP-peptide fusion (GPS, HEK-293T) (PSI 1-6); higher = more stable;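 also: lentivirally expressed fusions sorted by FACS into six bins by GFP to DsRed ratio, PSI derived from sequencing read proportions per bin multiplied by bin number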
TEST CONDITIONS: c terminus: a fixed tail appended
ASSAY METRIC: protein stability index
I'd appreciate a reply containing only the number, no unit.

-- ask Find the recorded protein stability index belonging to EPLPVERDPAAGAAPCRFVARPVR [F16C] and report it.
-- reply 4.08

-- ask Endpoint output: protein stability index of EPLPVERDPAAGAAPFRFVAQPVR [R21Q] . Value?
-- reply 2.96

-- ask Given EPLPVERDPAAKAAPFRFVARPVR [G12K] , state its recorded protein stability index.
-- reply 2.52

-- ask Need protein stability index, item EPLPVERDPAAGAAMFRFVARPVR [P15M]
-- reply 3.73

-- ask Which protein stability index reading was recorded for the variant EPLPVERDPAAGAAPFRFVARPVT [R24T] ?
-- reply 1.97

-- ask What measured protein stability index goes with EPLPVERDPAAGAAPFRFVARPVD [R24D] ?
-- reply 2.17

-- ask Quick one: protein stability index for EPLPVERDPAAGAAPFAFVARPVR [R17A] ?
-- reply 2.96

-- ask Any idea what its protein stability index is? The variant is EPLPVERDPACGAAPFRFVARPVR [A11C]
-- reply 2.18

-- ask Requested field: protein stability index. Item: EPLPVERDPAAGAADFRFVARPVR [P15D]
-- reply 4.21

-- ask // query protein stability index value for entry EPLPVERDPAAGAIPFRFVARPVR [A14I]
-- reply 1.31

-- ask What does the record list as protein stability index for EPLPVERDPAAGAAPFRFTARPVR [V19T] ?
-- reply 3.97

-- ask Looking for the measured protein stability index of EPLPVERDPAAGAAPFRFVARLVR [P22L] , can you help?
-- reply 2.33

-- ask Entry EPLPVERDFAAGAAPFRFVARPVR [P9F] : reported protein stability index = ?
-- reply 2.17

-- ask Entry EPLPVERDPAATAAPFRFVARPVR [G12T] has what protein stability index?
-- reply 1.64

-- ask Give the measured protein stability index of EPLPVLRDPAAGAAPFRFVARPVR [E6L] .
-- reply 2.98

-- ask Which protein stability index value is on record for EPLPVERDPYAGAAPFRFVARPVR [A10Y] ?
-- reply 2.97

-- ask Fill in the blank: the reported protein stability index of EPLPVERDPAAGAAPWRFVARPVR [F16W] is ____.
-- reply 2.46

-- ask Item EPLPVERDPAAGTAPFRFVARPVR [A13T] has what recorded protein stability index?
-- reply 2.5

-- ask Give the measured protein stability index of EHLPVERDPAAGAAPFRFVARPVR [P2H] .
-- reply 2.12

-- ask Name the recorded protein stability index for EPLPVERDPAAGAAPFRFVARAVR [P22A] .
-- reply 2.64

-- ask Query (variant): EPLPWERDPAAGAAPFRFVARPVR [V5W] ; field requested: protein stability index
-- reply 2.64

-- ask Could you tell me which protein stability index is on file for EPLPVERDPAAGAGPFRFVARPVR [A14G] ?
-- reply 2.55

-- ask Can you share its protein stability index? I mean this variant: EPLPVERDPAAGAAPFRFCARPVR [V19C]
-- reply 3.22

-- ask # input variant: EPLPVERDPAANAAPFRFVARPVR [G12N] ; wanted: its protein stability index
-- reply 2.27

-- ask Data request, read-out protein stability index, for EPLPTERDPAAGAAPFRFVARPVR [V5T]
-- reply 1.83

-- ask Which protein stability index is reported for this variant? EPLPRERDPAAGAAPFRFVARPVR [V5R]
-- reply 2.85

-- ask What value of protein stability index has been recorded for this entry: HPLPVERDPAAGAAPFRFVARPVR [E1H]
-- reply 2.2

-- ask Reported protein stability index, variant EPLPVERDPAAEAAPFRFVARPVR [G12E] : ____
-- reply 2.09

-- ask Report protein stability index for EPLPVERDPAAGAAPTRFVARPVR [F16T] please.
-- reply 4.52

-- ask Sample EPLPVERDPAQGAAPFRFVARPVR [A11Q] — what was its protein stability index?
-- reply 2.12

-- ask Please report the recorded protein stability index for EPLPVERDPAAGAAPFRFHARPVR [V19H] .
-- reply 1.62

-- ask GET /values?readout=protein stability index&item= EPLPVERDPADGAAPFRFVARPVR [A11D]
-- reply 2.33

-- ask Quick check: protein stability index of EPLPVERDPVAGAAPFRFVARPVR [A10V] ?
-- reply 1.38

-- ask Would you mind telling me what protein stability index value was observed for EPLPVERDPAAGALPFRFVARPVR [A14L] ?
-- reply 2.44

-- ask Value lookup for protein stability index; key = EPLPVERDPAAGAAPFRFVARPHR [V23H]
-- reply 2.69

-- ask I'd like to know its protein stability index. The variant in question is EPLPVERDPAAGAAPFRFVARPVS [R24S]
-- reply 1.81

-- ask Tell me the measured protein stability index of EPLPVERDPAAHAAPFRFVARPVR [G12H] , please.
-- reply 2.64

-- ask Which protein stability index value belongs to EPLPVERDPAAGAAPFRFAARPVR [V19A] ?
-- reply 4.47

-- ask Tell me the measured protein stability index of EPLPVERDPAAGAAVFRFVARPVR [P15V] , please.
-- reply 3.12

-- ask # query: protein stability index of entry EPLPVERDPAAGAAPFRFVARPVM [R24M]
-- reply 2.37

-- ask Endpoint output: protein stability index of EALPVERDPAAGAAPFRFVARPVR [P2A] . Value?
-- reply 2.66

-- ask # input variant: EPLPVERDPAAGAAPFQFVARPVR [R17Q] ; wanted: its protein stability index
-- reply 4.65

-- ask // returns reported protein stability index for input EPLPVERDPAAGGAPFRFVARPVR [A13G]
-- reply 2.48

-- ask What value of measured protein stability index is listed for KPLPVERDPAAGAAPFRFVARPVR [E1K] ?
-- reply 2.06

-- ask // returns reported protein stability index for input EPLPVERDPAASAAPFRFVARPVR [G12S]
-- reply 2.02

-- ask Any idea what its protein stability index is? The variant is EPLPVERDPAAGAAPFRFVARIVR [P22I]
-- reply 3.15

-- ask What value of measured protein stability index is listed for EPLPVERDPAADAAPFRFVARPVR [G12D] ?
-- reply 2.65

-- ask Recorded protein stability index for EPLPVERDPAAGAAPFKFVARPVR [R17K] , please?
-- reply 4.42

-- ask Please give the measured protein stability index for this variant: ENLPVERDPAAGAAPFRFVARPVR [P2N]
-- reply 1.99

-- ask Quick one: protein stability index of EPLPVEYDPAAGAAPFRFVARPVR [R7Y] ?
-- reply 1.75

-- ask Find the recorded protein stability index belonging to EPLPVERWPAAGAAPFRFVARPVR [D8W] and report it.
-- reply 1.91

-- ask Endpoint output: protein stability index of EPLPVERDPAAGAAPFRFVAREVR [P22E] . Value?
-- reply 2.62

-- ask What does the data say about its protein stability index? Entry: EPLPVETDPAAGAAPFRFVARPVR [R7T]
-- reply 3

-- ask Request the reported protein stability index associated with EPLPVERDPARGAAPFRFVARPVR [A11R]
-- reply 1.78

-- ask // lookup protein stability index for EPLCVERDPAAGAAPFRFVARPVR [P4C]
-- reply 1.91

-- ask Param item = EPLPVERDPAAGAAPFRFVARKVR [P22K] ; retrieve measured protein stability index.
-- reply 2.22

-- ask Please report the recorded protein stability index for EPVPVERDPAAGAAPFRFVARPVR [L3V] .
-- reply 2.23

-- ask // returns reported protein stability index for input EELPVERDPAAGAAPFRFVARPVR [P2E]
-- reply 2.23

-- ask Would you mind telling me what protein stability index value was observed for EFLPVERDPAAGAAPFRFVARPVR [P2F] ?
-- reply 1.72

-- ask # query: protein stability index of entry EPLPVERDPATGAAPFRFVARPVR [A11T]
-- reply 2.08

-- ask Query (variant): EPLPVERDPAIGAAPFRFVARPVR [A11I] ; field requested: protein stability index
-- reply 3.02

-- ask Find the recorded protein stability index belonging to EPMPVERDPAAGAAPFRFVARPVR [L3M] and report it.
-- reply 2.28

-- ask Dear colleague, I am looking for the recorded protein stability index of the following variant: EPLPVERMPAAGAAPFRFVARPVR [D8M]
-- reply 2.46

-- ask Fill in: protein stability index of EPLPCERDPAAGAAPFRFVARPVR [V5C] is ___
-- reply 2.39

-- ask Item under review: EPLPVERDPAFGAAPFRFVARPVR [A11F] . Reported protein stability index?
-- reply 2.02

-- ask Item EPLPVERDPAAGAAPFRFVARPVC [R24C] has what recorded protein stability index?
-- reply 2.22

-- ask Using the record for EPLPVERDPAAGAAPFSFVARPVR [R17S] , report its protein stability index.
-- reply 3.87

-- ask # get_value(readout='protein stability index', item= EPLPVERDPAAGAAPFRFVAVPVR [R21V] )
-- reply 1.8

-- ask Fill blank: measured protein stability index of the variant EPLPVERDPAAGAAPFRFVARPVW [R24W] is ____.
-- reply 1.64

-- ask Could you tell me which protein stability index is on file for EPLGVERDPAAGAAPFRFVARPVR [P4G] ?
-- reply 2.63

-- ask # input variant: EPLPVSRDPAAGAAPFRFVARPVR [E6S] ; wanted: its protein stability index
-- reply 1.96
